# experimentalTarget: T1, Recombinant human MASP1 enzyme (fragment corresponding to amino acids 297-699, C-terminal His Tag) (human, UniProt P48740 297-699)
# T1 sequence: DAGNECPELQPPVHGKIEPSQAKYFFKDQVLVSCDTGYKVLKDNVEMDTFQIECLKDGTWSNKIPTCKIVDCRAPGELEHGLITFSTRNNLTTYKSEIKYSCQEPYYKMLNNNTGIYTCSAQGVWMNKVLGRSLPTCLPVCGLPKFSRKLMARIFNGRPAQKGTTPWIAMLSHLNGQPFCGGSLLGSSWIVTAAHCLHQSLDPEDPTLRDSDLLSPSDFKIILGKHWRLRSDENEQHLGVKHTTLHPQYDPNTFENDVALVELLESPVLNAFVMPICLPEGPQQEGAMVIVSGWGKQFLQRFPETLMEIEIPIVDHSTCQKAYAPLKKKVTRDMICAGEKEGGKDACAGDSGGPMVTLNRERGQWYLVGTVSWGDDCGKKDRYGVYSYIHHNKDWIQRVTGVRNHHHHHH
# experimentalDetails: cell-based or functional assay
Bridge positions count the residues as written; N and C are the ends. Square brackets hold non-standard residues; d marks the D form. Ends that are not written are not given here. Oic = O=C(O)[C@@H]1C[C@@H]2CCCC[C@@H]2N1; PEG8 = NCCOCCOCCOCCOCCOCCOCCOCCOCCC(=O)O; tBuAla = CC(C)(C)C[C@H](N)C(=O)O; Pen = CC(C)(S)[C@H](N)C(=O)O; NMeC = CN[C@@H](CS)C(=O)O; Sar = CNCC(=O)O
Checkbox rule: human MASP1 IC50 lower than 5 nM = Satisfied; human MASP1 IC50 not lower than 5 nM = Not satisfied.

Examples with answers:
Query: Lab note: human MASP1 IC50 threshold 5 nM. Does this binder come in strictly under it? [2‑(Cyclohexylamino)acetyl]ICSRS[tBuAla]PPI[Pen]IPD-NH2 (disulfide 3-11) [(2-(Cyclohexylamino)acetyl)-IC+SRS-((tBu)A)-PPI-(Pen)+IPD-NH2]
Reply: Not satisfied

Query: Lab note: human MASP1 IC50 threshold 5 nM. Does this binder come in strictly under it? FICSRS[tBuAla]PPI[Pen]IPD-NH2 (disulfide 3-11; N-terminus assumed; SMILES CC[C@H](C)[C@H](NC(=O)[C@@H](N)Cc1ccccc1)C(=O)N[C@H]1CSSC(C)(C)[C@@H](C(=O)N[C@H](C(=O)N2CCC[C@H]2C(=O)N[C@@H](CC(=O)O)C(N)=O)[C@@H](C)CC)NC(=O)[C@H]([C@@H](C)CC)NC(=O)[C@@H]2CCCN2C(=O)[C@@H]2CCCN2C(=O)[C@H](CC(C)(C)C)NC(=O)[C@H](CO)NC(=O)[C@H](CCCNC(=N)N)NC(=O)[C@H](CO)NC1=O) [FIC+SRS-((tBu)A)-PPI-(Pen)+IPD-NH2]
Reply: Not satisfied

Query: Lab note: human MASP1 IC50 threshold 5 nM. Does this binder come in strictly under it? [Sar]ICSRSLP[Oic]I[Pen]IP[PEG8]-NH2 (disulfide 3-11; N-terminus assumed; SMILES CC[C@H](C)[C@H](NC(=O)CNC)C(=O)N[C@H]1CSSC(C)(C)[C@@H](C(=O)N[C@H](C(=O)N2CCC[C@H]2C(=O)NCCOCCOCCOCCOCCOCCOCCOCCOCCC(N)=O)[C@@H](C)CC)NC(=O)[C@H]([C@@H](C)CC)NC(=O)[C@@H]2C[C@@H]3CCCC[C@@H]3N2C(=O)[C@@H]2CCCN2C(=O)[C@H](CC(C)C)NC(=O)[C@H](CO)NC(=O)[C@H](CCCNC(=N)N)NC(=O)[C@H](CO)NC1=O) [((N-Me)G)-IC+SRSLP-(Oic)-I-(Pen)+IP-(PEG8(28 atoms))-NH2]
Reply: Satisfied

Then there is this binder:
Query: Lab note: human MASP1 IC50 threshold 5 nM. Does this binder come in strictly under it? AICSRS[tBuAla]P[Oic]I[NMeC]IPD-OH (disulfide 3-11; N-terminus assumed; SMILES CC[C@H](C)[C@H](NC(=O)[C@H](C)N)C(=O)N[C@H]1CSSC[C@@H](C(=O)N[C@H](C(=O)N2CCC[C@H]2C(=O)N[C@@H](CC(=O)O)C(=O)O)[C@@H](C)CC)N(C)C(=O)[C@H]([C@@H](C)CC)NC(=O)[C@@H]2C[C@@H]3CCCC[C@@H]3N2C(=O)[C@@H]2CCCN2C(=O)[C@H](CC(C)(C)C)NC(=O)[C@H](CO)NC(=O)[C@H](CCCNC(=N)N)NC(=O)[C@H](CO)NC1=O) [AIC+SRS-((tBu)A)-P-(Oic)-I-((N-Me)C)+IPD-OH]
Reply: Not satisfied
